# AAP/Cr (urine alanine aminopeptidase to creatinine), Mean listing for each entry below
Test system: male Wistar rats
Test: Urine alanine aminopeptidase to creatinine ratio (proximal tubular kidney damage)
Assay type: in vivo, rat
Settings: oral gavage, urine collected for 6 hours
observable: AAP/Cr (urine alanine aminopeptidase to creatinine), Mean

[[record]]
molecule = "COc1ccc2cc([C@H](C)C(=O)OCCCCO[N+](=O)[O-])ccc2c1"
measured = 403.400

[[record]]
molecule = "COc1ccc2cc(C(C)C(=O)OCON=[N+]([O-])N(C)C)ccc2c1 (centres unmarked) [DMA-NO-NAP, dimethylamino-diazeniumdiolate-naproxen]"
measured = 132.412

[[record]]
molecule = "COc1ccc2cc(C(C)C(=O)OCON=[N+]([O-])N3CCCC3)ccc2c1 (centres unmarked) [PYRO-NO-NAP, pyrrolidino-diazeniumdiolate-naproxen]"
measured = 195.569

[[record]]
molecule = "CS(=O)(=O)c1ccc(C2=C(c3ccccc3)C(=O)OC2)cc1"
measured = 538.367

[[record]]
molecule = "COc1ccc2cc([C@H](C)C(=O)O)ccc2c1"
measured = 263.788


* * *

Tested on: cardiac tissue prostacyclin (PGI2) to thromboxane A2 (TXB2) ratio
Experiment: Cardiac tissue prostacyclin to thromboxane ratio
Format: in vivo, rat
Conditions: male Wistar rats, oral gavage, heart removed 6 hours after dosing
Field 'label' (enum: t / f). Set to t when Cardiac Tissue PGI2/TXB2, Mean is strictly under 5; else f.

[[record]]
compound = "CS(=O)(=O)c1ccc(C2=C(c3ccccc3)C(=O)OC2)cc1"
answerlabel = "t"

[[record]]
compound = "COc1ccc2cc(C(C)C(=O)OCON=[N+]([O-])N(C)C)ccc2c1 (centres unmarked) [DMA-NO-NAP, dimethylamino-diazeniumdiolate-naproxen]"
answerlabel = "f"

[[record]]
compound = "COc1ccc2cc([C@H](C)C(=O)OCCCCO[N+](=O)[O-])ccc2c1"
answerlabel = "t"

[[record]]
compound = "COc1ccc2cc([C@H](C)C(=O)O)ccc2c1"
answerlabel = "t"


* * *

Experiment: Stability in intestinal lumen (decay rate)
Assay type: in vitro ADME
Settings: Rat
observable: intestinal lumen decay rate constant (min⁻¹)

[[record]]
molecule = "COc1ccc2cc(C(C)C(=O)OCOC(=O)C(CCC(=O)OCON=[N+]([O-])N(C)C)NC(=O)C(C)(C)C)ccc2c1 (stereo not shown)"
measured = 0.67

[[record]]
molecule = "COc1ccc2cc(C(C)C(=O)OCON=[N+]([O-])N3CCCC3)ccc2c1 (stereo not shown) [PYRO-NO-NAP, pyrrolidino-diazeniumdiolate-naproxen]"
measured = 0.025

[[record]]
molecule = "COc1ccc2cc(C(C)C(=O)OCOC(=O)CCC(NC(=O)C(C)(C)C)C(=O)OCON=[N+]([O-])N(C)C)ccc2c1 (stereo not shown)"
measured = 0.2

[[record]]
molecule = "COc1ccc2cc([C@H](C)C(=O)OCCCCO[N+](=O)[O-])ccc2c1"
measured = 0


* * *

# Urine NAG/Cr values, Mean listing for each entry below
System: male Wistar rats
Assay: Urine N-acetylglucosaminidase to creatinine ratio (distal tubule toxicity)
Format: in vivo, rat
Settings: oral gavage, urine collected for 6 hours
observable: Urine NAG/Cr values, Mean

[[record]]
compound = "COc1ccc2cc(C(C)C(=O)OCON=[N+]([O-])N3CCCC3)ccc2c1 (centres unmarked) [PYRO-NO-NAP, pyrrolidino-diazeniumdiolate-naproxen]"
measured = 21.515

[[record]]
compound = "COc1ccc2cc(C(C)C(=O)OCON=[N+]([O-])N(C)C)ccc2c1 (centres unmarked) [DMA-NO-NAP, dimethylamino-diazeniumdiolate-naproxen]"
measured = 20.403

[[record]]
compound = "COc1ccc2cc([C@H](C)C(=O)OCCCCO[N+](=O)[O-])ccc2c1 [AZD 3582]"
measured = 27.439

[[record]]
compound = "COc1ccc2cc([C@H](C)C(=O)O)ccc2c1 [NAP, naproxen]"
measured = 30.865

[[record]]
compound = "CS(=O)(=O)c1ccc(C2=C(c3ccccc3)C(=O)OC2)cc1 [ROF, Rofecoxib]"
measured = 24.176


* * *

Assay: Hydrolysis in rat liver microsomes
Type: in vitro ADME
Conditions: model input
observable: liver microsomal activity (mL/min/organ)

[[record]]
compound = "COc1ccc2cc([C@H](C)C(=O)OCCCCO[N+](=O)[O-])ccc2c1"
measured = 1029

[[record]]
compound = "COc1ccc2cc(C(C)C(=O)OCOC(=O)C(CCC(=O)OCON=[N+]([O-])N(C)C)NC(=O)C(C)(C)C)ccc2c1 (stereo not shown)"
measured = 7667

[[record]]
compound = "COc1ccc2cc(C(C)C(=O)OCON=[N+]([O-])N3CCCC3)ccc2c1 (stereo not shown) [PYRO-NO-NAP, pyrrolidino-diazeniumdiolate-naproxen]"
measured = 1920

[[record]]
compound = "COc1ccc2cc(C(C)C(=O)OCOC(=O)CCC(NC(=O)C(C)(C)C)C(=O)OCON=[N+]([O-])N(C)C)ccc2c1 (stereo not shown)"
measured = 6545


* * *

# intestinal microsomal activity listing for each entry below
Test: Hydrolysis in human intestinal microsomes
Assay type: in vitro ADME
Conditions: model input
observable: intestinal microsomal activity (mL/min/organ)

[[record]]
molecule = "COc1ccc2cc(C(C)C(=O)OCON=[N+]([O-])N3CCCC3)ccc2c1 (stereo not shown) [PYRO-NO-NAP, pyrrolidino-diazeniumdiolate-naproxen]"
measured = 188

[[record]]
molecule = "COc1ccc2cc(C(C)C(=O)OCOC(=O)CCC(NC(=O)C(C)(C)C)C(=O)OCON=[N+]([O-])N(C)C)ccc2c1 (stereo not shown)"
measured = 4813

[[record]]
molecule = "COc1ccc2cc([C@H](C)C(=O)OCCCCO[N+](=O)[O-])ccc2c1"
measured = 554

[[record]]
molecule = "COc1ccc2cc(C(C)C(=O)OCOC(=O)C(CCC(=O)OCON=[N+]([O-])N(C)C)NC(=O)C(C)(C)C)ccc2c1 (stereo not shown)"
measured = 5006


* * *

Experiment: Hydrolysis in rat intestinal microsomes
Type: in vitro ADME
Conditions: model input
# intestinal microsomal activity listing for each entry below
observable: intestinal microsomal activity (mL/min/organ)

[[record]]
molecule = "COc1ccc2cc(C(C)C(=O)OCOC(=O)CCC(NC(=O)C(C)(C)C)C(=O)OCON=[N+]([O-])N(C)C)ccc2c1 (stereo not shown)"
resultunits = "mL/min/organ"
measured = 2

[[record]]
molecule = "COc1ccc2cc(C(C)C(=O)OCOC(=O)C(CCC(=O)OCON=[N+]([O-])N(C)C)NC(=O)C(C)(C)C)ccc2c1 (stereo not shown)"
resultunits = "mL/min/organ"
measured = 9

[[record]]
molecule = "COc1ccc2cc(C(C)C(=O)OCON=[N+]([O-])N3CCCC3)ccc2c1 (stereo not shown) [PYRO-NO-NAP, pyrrolidino-diazeniumdiolate-naproxen]"
resultunits = "mL/min/organ"
measured = 1

[[record]]
molecule = "COc1ccc2cc([C@H](C)C(=O)OCCCCO[N+](=O)[O-])ccc2c1"
resultunits = "mL/min/organ"
measured = 0.09


From: patent US20080288176A1
